biological target: D2 receptors (Homo sapiens (Human), UniProt P14416); experiment: D2 β-arrestin recruitment (Tango) assay; format: cell-based; settings: HTLA cells; read-out: β-arrestin (Tango) EC50
Sequence (P14416 whole entry, looked up): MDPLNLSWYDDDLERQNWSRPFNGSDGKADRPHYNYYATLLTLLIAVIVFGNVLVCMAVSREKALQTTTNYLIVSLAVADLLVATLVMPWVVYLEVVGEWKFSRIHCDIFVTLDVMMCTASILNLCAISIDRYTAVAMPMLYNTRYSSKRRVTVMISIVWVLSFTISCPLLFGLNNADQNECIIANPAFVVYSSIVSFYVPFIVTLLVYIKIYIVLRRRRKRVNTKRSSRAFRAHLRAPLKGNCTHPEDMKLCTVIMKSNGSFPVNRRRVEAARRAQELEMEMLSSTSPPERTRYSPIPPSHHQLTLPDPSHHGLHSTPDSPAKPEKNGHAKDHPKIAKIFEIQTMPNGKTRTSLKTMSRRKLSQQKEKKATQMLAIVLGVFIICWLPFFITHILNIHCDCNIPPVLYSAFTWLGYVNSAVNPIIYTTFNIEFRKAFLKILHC
ASSAY READOUT: EC50 (nM)
Quick reminder: number only, in nM, skip the unit.

Some molecules with recorded EC50:
# COMPOUND STRING, EC50 (nM)
rows = [
    ("O=c1[nH]c2ccc(OCCCN3CCCN(c4cccc(Cl)c4Cl)CC3)cc2[nH]1", 8.5),
    ("O=C1NCCc2ccc(OCCCN3CCN(c4cccc(Cl)c4Cl)CC3)cc21", 30),
    ("CC(C)Oc1ccccc1N1CCCN(CCCCOc2ccc3c(n2)NC(=O)CC3)CC1", 4.6),
]

Please look at the following molecule next.
# input molecule: Clc1cccc(N2CCN(CCCCOc3ccc4cn[nH]c4c3)CC2)c1Cl ; wanted: its EC50 92
